target: Thrombin (UniProt P00734+P00734); assay: EMSA; settings: 0.1 nM aptamer, thrombin 0.1-12.8 nM; more than half bound at 0.1 nM thrombin
pKd: −log10 of the molar value.
experimentalReadout: pKd

INPUT: Query for Thrombin (UniProt P00734+P00734): what pKd does the record show for NTAGGDTGGGTAGGGTGGTNAGGGWTGATGYGTGGTAGGC [Bivalent aptamer AD] ?
OUTPUT: > 10.00

// provenance: patent US11168320
